# ASSAYED_SYSTEM: Alpha-bungarotoxin (Bungarus multicinctus) (UniProt P60615)
# Sequence (P60615 whole entry, looked up): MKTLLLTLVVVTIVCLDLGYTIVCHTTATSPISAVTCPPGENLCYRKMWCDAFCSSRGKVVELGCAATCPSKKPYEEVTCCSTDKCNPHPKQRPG
# TEST_SUMMARY: alpha-bungarotoxin binders on microarray, profiling panel, artefact control for SMM control protein annotation, biochemical, small-molecule microarray, Alexa647 label, 635/667 nm fluorescence (AID 1117)
# CONDITION_DETAILS: alpha-BTX-A647 binding fluorescence, higher = more signal
So basically: composite z-score at 0.2 or higher? That is T. Lower than 0.2? That is F.

MOLECULE	CLASS_NAME
CCCC=C(CCC)[C@@H](NC(=O)c1ccc(C(F)(F)F)cc1)c1ccccc1	T
C=C(/C(=C/C[C@@H](OC(=O)c1ccncc1)c1ccc(CO)o1)c1cnc2ccccc2c1)C(C)C	T
O=C1O[C@@H](c2ccccc2)[C@@H](c2ccccc2)N2[C@@H](c3ccc(OCCO)cc3)[C@]3(C(=O)Nc4ccc(C#CCCO)cc43)[C@@H](C(=O)N3CCN(c4ncccn4)CC3)[C@H]12	T
C=C[C@H](OC)[C@@H](OC(=O)Nc1ccc(SC)cc1)c1ccc(OC)c(O)c1	F
COC(=O)Cn1c(C(=O)N2CCCC2)cc2c1C[C@H]1CN(C(=O)c3ccccc3)[C@@](Cc3ccc(OC)cc3)(C(=O)OC)[C@@H]21	T
C[C@@H]1CC[C@H]2C(=O)N3[C@@H](CC[C@@H](C)[C@@H]3c3cccc(N4CCOCC4)c3)C(=O)N2[C@H]1c1cccc(N2CCOCC2)c1	T
O=C(NCC(O)CO)[C@]1(Cc2ccccc2)N=C(c2ccc(OCCCO)cc2)O[C@@H]1c1ccccc1 (stereo partly specified)	T
C=CCC(OC(C)=O)[C@@H]1[C@@H](N(Cc2cc3ccccc3o2)C(=O)Cc2ccc(F)cc2)c2cc(OCCCO)ccc2N1C(=O)c1ccc(-c2ccccc2)cc1 (stereo partly specified)	T
Cc1ccc(S[C@]2(C(=O)NC(C)C)CC(=O)N(Cc3cc(C(F)(F)F)cc(C(F)(F)F)c3)[C@@H]2c2ccc(CO)cc2I)cc1	T
C=CC[C@]1(C(=O)O)N=C(c2ccc(OCCCO)cc2)O[C@H]1c1ccccc1N=[N+]=[N-]	F
O=C1OCCC=C[C@H]2OC34C=CCN(Cc5ccccc5)C(=O)[C@H]3N(CCO)C(=O)[C@@H]4C12 (stereo partly specified)	F
O=C1c2ccccc2[C@@]2(Cc3ccccc3N(CC(F)(F)F)C2=O)[C@H](c2ccc(CO)cc2)N1C1CCCCC1	F
COc1ccc([Si](C)(C)[C@@H]2[C@@H](CC(=O)N(CCO)Cc3ccccc3)O[C@]3(C(=O)N(Cc4cccc(N5CCC5=O)c4)c4ccccc43)[C@H]2C)cc1	T
COc1cc(CO)cc(I)c1O[C@H]1C=C(C(=O)NCCO)C[C@@H](N(CC2CCCCC2)C(=O)c2cc3ccccc3oc2=O)[C@@H]1O	F
CCOC(=O)C[C@H]1[C@H](OC(=O)Cc2ccc3c(c2)OCO3)[C@@H](NC(=O)CC(C)C)c2cc(OCCCO)ccc2N1C(=O)c1ccccc1	F
COC(=O)[C@@]1(Cc2ccc(OC)cc2)[C@H]2c3cc(C(=O)N(C)C)n(Cc4ccc(C)c(F)c4F)c3C[C@H]2CN1C(=O)c1ccccc1	T
C=CC[C@]1(C(=O)NCC(O)CO)N=C(c2ccc(OCCCO)cc2)O[C@H]1c1ccccc1 (stereo partly specified)	T
CO[C@]12C=C(Br)[C@@H](C[C@@H]1c1ccccc1)[C@@]1(CO1)C2=O	F
CN1C(=O)C2C=CC(C(O)c3ccc(N(C)C)cc3)N(Nc3ccc([N+](=O)[O-])cc3[N+](=O)[O-])C2C1=O (stereo unspecified)	T
C[N+](C)(C)CCCCNC(=O)[C@H]1C[C@H]2C(=O)NCC(=O)N2[C@H]1c1cccc(OCCO)c1	T
CN(C)c1ccc(C(O)C2C=CC3C(=O)NC(=O)C3N2Nc2ccc(Cl)cc2Cl)cc1 (stereo unspecified)	T
C=CCc1cccc([C@H]2N[C@H](C(=O)O)CC[C@@H]2C)c1	F
C=C(CCCC)C(=O)CC[C@@H](OC(C)=O)c1ccccc1OCCO	F
CO[C@H]1COC(=O)[C@@H](Cc2ccccc2)NC(=O)[C@@H](C)COC(=O)CC=C[C@@H]1C	F
CC(C)NC(=O)[C@@]1(Cc2ccccc2I)c2ccccc2C(=O)N(C2CCCCC2)[C@H]1c1ccc(CO)cc1	T
N#Cc1ccc(NN2C(C(O)CCc3ccccc3)C=CC3C(=O)N(c4ccccc4)C(=O)C32)cc1 (stereo unspecified)	T
C=CC[C@@]12N=C(c3ccc(OCCCO)cc3)O[C@@H]1c1ccccc1CN(Cc1ccccc1)C2=O	T
Cc1ccc(N2C(=O)c3ccccc3[C@](C)(C(=O)O)[C@@H]2c2ccc(CO)cc2)nc1	F
CC(C)(C)OC(=O)CC[C@]1(C(=O)N2CCCCC2)N=C(c2ccc(OCCCO)cc2)O[C@H]1c1ccccc1	T
CN1CCC(CCCO)=CC1C1CC1 (stereo unspecified)	F
C#CCCCON=C1C[C@@H](O)[C@@H](O)[C@@H]2[C@@H]3C(=O)N(Cc4ccc5c(c4)OCO5)C(=O)[C@@H]3CC[C@H]12	T

###

# TEST_SUMMARY: MM1S myeloma cell viability, profiling panel, resazurin fluorescence, basal, 24 h, PK04 Diversity Set (AID 1174);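 further: MM1S multiple myeloma cell line; test concentration not given here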
# CONDITION_DETAILS: higher = more signal, called active from +8 up or from −8 down
Response field class: string, computed from recorded z-score by ranges bin 0: < -0.9; bin 1: ≥ -0.9 and < 0.4; bin 2: ≥ 0.4

COMPOUND	CLASS_NAME
CCCC=C(CCC)[C@@H](NC(=O)c1ccc(C(F)(F)F)cc1)c1ccccc1	bin 1
O=C(CS)NCCCCCNC(=O)[C@H]1C[C@H]2C(=O)N3CCC[C@H]3C(=O)N2[C@H]1c1ccc(O)cc1	bin 2
Cc1ccc(S[C@]2(C(=O)NC(C)C)CC(=O)N(C3Cc4ccccc4C3)[C@@H]2c2ccc(CO)cc2)cc1	bin 2
C=CCC1=C[C@H]2[C@H]([C@@H]3C=C[C@]2(CC=C)C(=O)[C@]32CO2)[C@@]2(CO2)C1=O	bin 0
[N-]=[N+]=NCc1ccccc1C[C@@]1(C(=O)O)N=C(c2ccc(OCCCO)cc2)O[C@@H]1c1ccccc1N=[N+]=[N-]	bin 0
O=C/C=C/c1ccccc1Cl	bin 2
C=C(C)[C@@H]1CC=C(C(O)C2C=CC3C(=O)NC(=O)C3N2Nc2ccccn2)CC1 (some centres undefined)	bin 0
C=CCC(OC(C)=O)[C@@H]1[C@@H](N(Cc2ccc(-c3cccc(C(F)(F)F)c3)o2)C(=O)Cc2ccc(F)cc2)c2cc(OCCCO)ccc2N1C(=O)c1ccc(-c2ccccc2)cc1 (some centres undefined)	bin 1
C=CCC(OC(C)=O)[C@@H]1[C@@H](N(Cc2ccc(-c3ccccc3)cc2)C(=O)c2ccc(-c3ccccc3)cc2)c2cc(OCCCO)ccc2N1C(=O)Cc1ccc(OC)cc1 (some centres undefined)	bin 1
C[N+](C)(C)CCCCNC(=O)[C@H]1C[C@H]2C(=O)NCC(=O)N2[C@H]1c1cccc(OCCO)c1	bin 0
CCOC(=O)C1=CCC(c2cccc3ccccc23)N(S(=O)(=O)c2ccc(C)cc2)C1 (centres undefined)	bin 0
CCOC(=O)C1=CC[C@@H](c2ccccc2)N(S(=O)(=O)c2ccc(C)cc2)[C@H]1C	bin 1
COCCOC(=O)N1C(=O)[C@@]2(c3cc(C#CCNC(N)=O)ccc31)[C@H](c1ccccc1OCCO)N1[C@H](c3ccccc3)[C@H](c3ccccc3)OC(=O)[C@H]1[C@@H]2C(=O)NC[C@H](O)c1ccccc1	bin 1
C=CCN1C(=O)[C@]2(O[C@H](CCn3cc(CCO)nn3)[C@@H]([Si](C)(C)c3ccc(OC)cc3)[C@@H]2C)c2cc(NC(=O)c3ccc(OC)cc3)ccc21	bin 0
O=C(NCc1ccccc1)[C@@]1(Cc2ccccc2)COC(c2ccc(OCCCO)cc2)=N1	bin 0
[N-]=[N+]=NCc1ccccc1C[C@]1(C(N)=O)N=C(c2ccc(OCCCO)cc2)O[C@H]1c1ccccc1CN=[N+]=[N-]	bin 0
CCOC(=O)[C@H]1C/C=C/C[C@H](C(=O)OCC)C(=O)O[C@H]2[C@@H](OC)O[C@H](CO)[C@@H](OC(=O)Nc3ccc(Br)cc3)[C@@H]2OC1=O	bin 0
CCOC(=O)C[C@H]1[C@H](OC(=O)c2ccccc2-c2ccccc2)[C@@H](NC(=O)C2CCCCC2)c2cc(OCCCO)ccc2N1C(=O)c1ccccc1	bin 2
COCCOC(=O)N1C(=O)[C@@]2(c3cc(C#CCCO)ccc31)[C@H](C(=O)N1CCCCCCC1)[C@H]1C(=O)O[C@H](c3ccccc3)[C@H](c3ccccc3)N1[C@@H]2c1ccc(O)cc1	bin 2
C=CCOC(=O)[C@@H]1[C@H]2C(=O)O[C@H](c3ccccc3)[C@H](c3ccccc3)N2[C@H](c2ccc(OCCOC(=O)[C@H]3C[C@H]4C(=O)N5CCC[C@H]5C(=O)N4[C@H]3c3ccc(O)cc3)cc2)[C@@]12C(=O)Nc1ccccc12	bin 1
C=C[C@H](OC)[C@@H](OC(=O)Nc1ccc(SC)cc1)c1ccc(OC)c(O)c1	bin 2
CCCNC(=O)[C@@H]1c2ccccc2C(=O)N(C2CCCCC2)[C@H]1c1ccc(CO)cc1	bin 1
C=C(/C(=C/C[C@@H](OC(=O)c1ccncc1)c1ccc(CO)o1)c1cnc2ccccc2c1)C(C)C	bin 2
C[N+](C)(C)CCCCNC(=O)[C@@H]1C[C@@H]2C(=O)N3CCC[C@H]3C(=O)N2[C@@H]1c1cccc(OCCO)c1	bin 2
C=CC[C@]1(C(=O)OC)N=C(c2ccc(OCCCO)cc2)O[C@H]1c1ccccc1CN=[N+]=[N-]	bin 1
CO[C@@H]1COC(=O)CC=C[C@@H](C)[C@H](OC)COC(=O)CC=C[C@H]1C	bin 1
O=C1O[C@@H](c2ccccc2)[C@@H](c2ccccc2)N2[C@@H](c3ccc(OCCO)cc3)[C@]3(C(=O)Nc4ccc(C#CCCO)cc43)[C@@H](C(=O)N3CCN(c4ncccn4)CC3)[C@H]12	bin 2
C=C(CCCC)C(=O)CC[C@@H](OC(=O)c1cccnc1)c1cccc(OCCO)c1	bin 0
